- COND: in isobutanol, 322.15 K
MEASURE: solubility (mole fraction)

Problem: // query solubility (mole fraction) value for entry Cc1cccc(C(=O)O)c1[N+](=O)[O-]
Result: 0.0314

====

- COND: in n-butanol, 336.75 K
MEASURE: solubility (mole fraction)
API doc: respond with a numeric literal and nothing else, no unit.

Problem: I would be grateful if you could share the reported solubility (mole fraction) for Cc1cc(C(=O)O)ccc1[N+](=O)[O-] .
Result: 0.0405

====

- COND: in n-butanol, 297.75 K
MEASURE: solubility (mole fraction)
Lab note: write the figure by itself, no unit.

Problem: Which solubility (mole fraction) is reported for this compound? Cc1ccc([N+](=O)[O-])c(C(=O)O)c1
Result: 0.199

====

- COND: in isobutanol, 315.05 K
MEASURE: solubility (mole fraction)
Response field accepts a number only; no unit should be typed.

Problem: So what does the record say about solubility (mole fraction) for Cc1cccc(C(=O)O)c1[N+](=O)[O-] ?
Result: 0.0227

====

- COND: in tert-butanol, 306.95 K
MEASURE: solubility (mole fraction)
Number only, no unit.

Problem: Fill in the blank: the reported solubility (mole fraction) of Cc1cc(C(=O)O)ccc1[N+](=O)[O-] is ____.
Result: 0.0229

====

- COND: in tert-butanol, 304.05 K
MEASURE: solubility (mole fraction)
No unit in the answer, please; the number alone is enough.

Problem: Please look up its solubility (mole fraction): Cc1cccc(C(=O)O)c1[N+](=O)[O-]
Result: 0.0328

====

- COND: in n-butanol, 300.75 K
MEASURE: solubility (mole fraction)
API note: the answer field is a bare number with no unit suffix.

Problem: Consider the molecule shown here: Cc1cccc(C(=O)O)c1[N+](=O)[O-] What is its recorded solubility (mole fraction)?
Result: 0.0177

====

- COND: in tert-butanol, 340.65 K
MEASURE: solubility (mole fraction)
When you answer, write just the number.

Problem: Data request, read-out solubility (mole fraction), for Cc1cccc(C(=O)O)c1[N+](=O)[O-]
Result: 0.111

====

- COND: in n-butanol, 341.25 K
MEASURE: solubility (mole fraction)
Answer with a number only.

Problem: Which solubility (mole fraction) value belongs to Cc1cc(C(=O)O)ccc1[N+](=O)[O-] ?
Result: 0.047

====

- COND: in tert-butanol, 322.75 K
MEASURE: solubility (mole fraction)

Problem: Recorded solubility (mole fraction) of Cc1ccc([N+](=O)[O-])c(C(=O)O)c1 , please.
Result: 0.366

====

- COND: in sec-butanol, 309.95 K
MEASURE: solubility (mole fraction)
The answer should be a number; do not append a unit.

Problem: # input compound: Cc1ccc([N+](=O)[O-])c(C(=O)O)c1 ; wanted: its solubility (mole fraction)
Result: 0.28

====

- COND: in sec-butanol, 330.55 K
MEASURE: solubility (mole fraction)
Please state the value as a number alone, without comment.

Problem: Return reported solubility (mole fraction); argument: Cc1ccc([N+](=O)[O-])c(C(=O)O)c1
Result: 0.372

====

- COND: in sec-butanol, 311.55 K
MEASURE: solubility (mole fraction)

Problem: GET /values?readout=solubility (mole fraction)&item= Cc1cc(C(=O)O)ccc1[N+](=O)[O-]
Result: 0.0199
